system: COLO 205 colon; experiment: NCI-60 one-dose screen, 48 h (100 = growth as untreated, 0 = no growth, -100 = all killed); details: 10 µM unless noted
Compounds without any hit were thinned out: in the full panel of roughly 83,000, 20% have a hit.
Listing: growth of selected molecules
Give the number; % is assumed, so skip it.

>  <molecule>
CCN(CC)c1cc(N)c(Cc2c(N)cc(N(CC)CC)cc2Cl)c(Cl)c1

>  <target-or-system>
COLO 205 colon

>  <readout-unit>
%

>  <growth>
21.4

$$$$
>  <molecule>
CCOC(=O)C(c1ccccc1)N1C(=O)c2ccccc2C1=O (stereo not drawn)

>  <target-or-system>
COLO 205 colon

>  <readout-unit>
%

>  <growth>
98.5

$$$$

[ask] Name the reported growth value associated with the molecule CC(C)CCNCC(C)(C)O
[reply] 118

* * *

system: KM12 colon; assay: NCI-60 one-dose screen, 48 h; details: 10 µM unless noted
This is part of a sample that, as a whole, favours compounds with a hit. Of some 83,000 tested, about 20% had one in any assay. The source made the active and inactive calls. How the source made its calls: active means growth percent below 10; inactive means the rest.
Just give me one of these, please: active, inactive

[ask] Name the outcome recorded for O=C(CCN1CCCCC1)c1ccc2ccccc2c1 in the assay.
[reply] inactive

* * *

tested on: OVCAR-3 ovarian; experiment: NCI-60 one-dose screen, 48 h; details: 10 µM unless noted
This is part of a sample that, as a whole, favours compounds with a hit. Of some 83,000 tested, about 20% had one in any assay. Active and inactive are the calls of the source. The calls were made as follows: active = growth percent below 10; inactive = the rest.
Just give me one of these, please: active, inactive

>  <substance-smiles>
COc1ncc(-c2ccc3nccc(C#CCCCCC(=O)NO)c3c2)cc1NS(=O)(=O)c1ccc(F)cc1F

>  <category>
active

$$$$

[ask] Name the outcome recorded for COc1ccc(-c2ccc(NNC(=O)c3ccc(F)cc3)nn2)cc1OC in the assay.
[reply] inactive

[ask] Try this molecule too: CC1(C)S[C@@H]2[C@H](NC(=O)[C@H](C(=O)O)c3cccs3)C(=O)N2[C@H]1C(=O)O
[reply] inactive

[ask] Try this molecule too: Cc1cccc(C[C@H](NC(=O)Nc2ccc(Cl)cc2F)C(=O)N[C@@H]2C(=O)N3C[C@H](O)C[C@H]3C(=O)N3CCCC[C@H]3C(=O)N[C@@H](C)C(=O)N3C[C@H](C)C[C@H]3C(=O)O[C@H]2C)c1
[reply] active

[ask] Try this molecule too: COc1ccc(/C=C/C(=C/c2c(O)[nH]c3cc(Br)ccc23)N=O)cc1
[reply] inactive

[ask] Try this molecule too: CC(C)=CC/C=C(/C)[C@H]1CC[C@]2(C)[C@@H]1CC[C@@H]1[C@@]3(C)CC/C(=N/O)C(C)(C)[C@@H]3CC[C@]12C
[reply] inactive

[ask] Try this molecule too: COc1ccc(C(=O)CSc2nccc(Nc3ccc(C(=O)O)cc3)n2)cc1
[reply] inactive

* * *

test system: PC-3 prostate; test: NCI-60 one-dose screen, 48 h (100 = growth as untreated, 0 = no growth, -100 = all killed); details: 10 µM unless noted
About 83,000 compounds went through this panel and 20% of them were active in at least one assay; those are over-represented in the sample as a whole.
Listing: growth of selected compounds
Give the number; % is assumed, so skip it.

[ask] Name the reported growth value associated with the compound C[C@@H]1C[C@H]2C(=O)O[C@@H](C)[C@H](NC(=O)[C@H](Cc3cc(F)cc(F)c3)NC(=O)Nc3ccc(Cl)cc3F)C(=O)N3C[C@H](O)C[C@H]3C(=O)N3CCN(C)C[C@H]3C(=O)N[C@@H](C)C(=O)N2C1
[reply] 18.1
